assay.remarks: Solubility of ISF402 at various pH and temperatures
Format: physicochemical
reported.conditions: 25 mM ammonium bicarbonate buffer; room temperature, pH 6.3; read-out: lowest solubility
Peptide text beside a SMILES is read from it.
quantity.kind: solubility at 24 h (mg/mL)
Reply numerically in mg/mL, unit not repeated.

Entry under review: CC(C)[C@H](N)C(=O)N[C@@H](Cc1c[nH]cn1)C(=O)N[C@H](C(=O)N[C@@H](CC(=O)O)C(N)=O)[C@@H](C)O [ISF402, Val-His-Thr-Asp-NH2] (H-VHTD-NH2) . Reported solubility at 24 h?
165
